# target_entity: recombinant SARS-CoV-2 RBD with C-terminal AviTag (SARS-CoV-2, UniProt P0DTC2 319-541)
# procedure_details: BLI, biotinylated RBD on streptavidin biosensors
pKd: −log10 of the molar value.
# binarize pKd: threshold 8 inclusive, high side Condition met, low side Condition not met

Consider the worked cases shown below.
1. PP911 MBP-5HVZ-S2b-F7-H6 (VHH, Form: Dimer) VHH: QVQLVESGGGLVQPGGSLRLSCAASGSTLSNNAMHWFRQAPGKAREFVAAIGSSDSTDYKDSVKGRFTISRDNAKNTVYLQMNSLKPEDTAVYYCTALLDSGPGEYNYWGQGTQVTVSS : Condition not met
2. PP910 MBP-5HVZ-S2b-C10-H6 (VHH, Form: Dimer) VHH: QVQLVESGGGLVQPGGSLRLSCAASGSAFSLNYMAWFRQAPGKQREGVAIIGSGGSSDYADSVKGRFTISRDNAKNTVYLQMNSLKPEDTAVYYCAAQPNGSPDDFDYWGQGTQVTVSS : Condition not met
3. PP909 MBP-5HVZ-S2b-A7-H6 (VHH, Form: Dimer) VHH: QVQLVESGGGLVQPGGSLRLSCAASGSSDSWNALHWFRQAPGKEREFVAGISSAGSGYYADSVKGRFTISRDNAKNTVYLQMNSLKPEDTAVYYCNGYEHTTGYDYWGQGTQVTVSS : Condition not met

Given PP913 MBP-5HVZ-S3a-C5-H6 (VHH, Form: Dimer) VHH: QVQLVESGGGLVQPGGSLRLSCAASGSIKNTNAMHWFRQAPGKDREWVAGITSGGNSNYGDSVKGRFTISRDNAKNTVYLQMNSLKPEDTAVYYCAAFGYRYDQDYTYDYWGQGTQVTVSS , state whether its pKd is at least 8.
Condition met

Decide: is the reported value of pKd for PP915 MBP-5HVZ-S3b-A7-H6 (VHH, Form: Dimer) VHH: QVQLVESGGGLVQPGGSLRLSCAASGSIASINAIHWVRQAPGKQREEVAAITSGGSTGYADSVKGRFTISRDNAKNTVYLQMNSLKPEDTAVYYCAAQPGQSYAVWGQGTQVTVSS equal to or greater than 8?
Condition met

Test whether the binder PP908 MBP-5HVZ-S2a-C4-H6 (VHH, Form: Dimer) VHH: QVQLVESGGGLVQPGGSLRLSCAASGFSESINATAWFRQAPGKQREGVAGLDGGGSDYYSDSVKGRFTISRDNAKNTVYLQMNSLKPEDTAVYYCAAQLTSSFRGYDFTPSNYDYWGQGTQVTVSS records pKd of 8 or higher.
Condition not met

Recorded values, source patent US20240150440A1.
